B1: glmS ribozyme (parent)
chain: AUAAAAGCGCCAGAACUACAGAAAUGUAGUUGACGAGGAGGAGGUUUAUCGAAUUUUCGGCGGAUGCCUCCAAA

Variants of: B1
Assay: self-cleavage kobs at 160 uM GlcN6P; higher = faster cleavage; RNA array
Conditions: with glucosamine-6-phosphate
This sample holds only a part of the variants without activity.
assayReadout: self-cleavage kobs at 160 uM GlcN6P

Completed entries (count: 4):
Item C34A G41C has what recorded self-cleavage kobs at 160 uM GlcN6P? < 1e-05 s⁻¹

Item G62C G63A has what recorded self-cleavage kobs at 160 uM GlcN6P? < 1e-05 s⁻¹

Item G38C G44U has what recorded self-cleavage kobs at 160 uM GlcN6P? < 1e-05 s⁻¹

Item G9C A12G has what recorded self-cleavage kobs at 160 uM GlcN6P? < 1e-05 s⁻¹

Required: self-cleavage kobs at 160 uM GlcN6P, one value per variant below.
1. C11G A14G U31C A42G U56G A64U U65A
2. G9U A39G
3. G51A A52C
4. G7C C34G
5. C8U C16A A39C U46C G51A U65G U69A
6. C8U U46A

["< 1e-05 s⁻¹", "< 1e-05 s⁻¹", "< 1e-05 s⁻¹", "< 1e-05 s⁻¹", "< 1e-05 s⁻¹", "< 1e-05 s⁻¹"]
